The entries below are paired with their reported CC50 at 96 h.
# PROTOCOL DESCRIPTION: in vitro
# Type: cell-based
# CONDITION DETAILS: human
The reply should contain only the number, in µM.

{"MOLECULE": "CCCCCCCCCCCCCCCC[C@@H](COP(=O)(O)OC[C@@]1(C#N)O[C@@H](c2ccc3c(N)ncnn23)[C@H](O)[C@@H]1O)OCc1cc(F)cc(C#N)c1", "CC50 at 96 h (µM)": 6.74}
{"MOLECULE": "CCCCCCCCCCCCCCCCCC[C@H](COP(=O)(O)OC[C@@]1(C#N)O[C@@H](c2ccc3c(N)ncnn23)[C@H](O)[C@@H]1O)OCc1cc(F)cc(C#N)c1", "CC50 at 96 h (µM)": 1.82}
{"MOLECULE": "CCCCCCCCCCCCCCCCCCOC[C@@H](COP(=O)(O)OC[C@@]1(C#N)O[C@@H](c2ccc3c(N)ncnn23)[C@H](O)[C@@H]1O)Oc1ccc(C#N)nc1", "CC50 at 96 h (µM)": 5.1}
{"MOLECULE": "CCCCCCCCCCCCCCCCCCOC[C@H](COP(=O)(O)OC[C@@]1(C#N)O[C@@H](c2ccc3c(N)ncnn23)[C@H](O)[C@@H]1O)OCc1cccc(C#N)n1", "CC50 at 96 h (µM)": 8.71}

Asked: If you can, please state the reported CC50 at 96 h value of CCCCCCCCCCCCCCCCCC[C@H](COP(=O)(O)OC[C@@]1(C#N)O[C@@H](c2ccc3c(N)ncnn23)[C@H](O)[C@@H]1O)OCc1cc(Cl)cc(C#N)c1 .
Given back: 4.52

Asked: Query: CC50 at 96 h; subject: CCCCCCCCCCCCCCCCC[C@H](COP(=O)(O)OC[C@@]1(C#N)O[C@@H](c2ccc3c(N)ncnn23)[C@H](O)[C@@H]1O)OCc1cc(Cl)cc(C#N)c1
Given back: 6.39

Asked: So what does the record say about CC50 at 96 h for CCCCCCCCCCCCCCCCCCOCC(COc1cc(F)cc(C#N)c1)COP(=O)(O)OC[C@@]1(C#N)O[C@@H](c2ccc3c(N)ncnn23)[C@H](O)[C@@H]1O (stereo partly shown) ?
Given back: 4

Asked: Look up CC50 at 96 h: CCCCCCCCCCCCCCCCCCC[C@H](COP(=O)(O)OC[C@@]1(C#N)O[C@@H](c2ccc3c(N)ncnn23)[C@H](O)[C@@H]1O)OCc1cc(Cl)cc(C#N)c1
Given back: 4.03

Asked: # lookup: CC50 at 96 h of CCCCCCCCCCCCCCCCC[C@H](COP(=O)(O)OC[C@@]1(C#N)O[C@@H](c2ccc3c(N)ncnn23)[C@H](O)[C@@H]1O)OCc1cc(F)cc(C#N)c1
Given back: 9.56

Asked: Give the measured CC50 at 96 h of CCCCCCCCCCCCCCCCCCC[C@H](COP(=O)(O)OC[C@@]1(C#N)O[C@@H](c2ccc3c(N)ncnn23)[C@H](O)[C@@H]1O)Oc1ccc(C#N)c(OC(C)C)c1 .
Given back: 6.19

Asked: For CCCCCCCCCCCCCCC[C@H](COP(=O)(O)OC[C@@]1(C#N)O[C@@H](c2ccc3c(N)ncnn23)[C@H](O)[C@@H]1O)OCc1cc(F)cc(C#N)c1 , what is its reported CC50 at 96 h?
Given back: 7.08

Asked: Requested read-out: CC50 at 96 h. Entry: CCCCCCCCCCCCCCCCCCOC[C@H](COP(=O)(O)OC[C@@]1(C#N)O[C@@H](c2ccc3c(N)ncnn23)[C@H](O)[C@@H]1O)OCc1cc(F)cc(C#N)c1
Given back: 3.62

Asked: Need CC50 at 96 h, item CCCCCCCCCCCCCCCCOC[C@@H](COP(=O)(O)OC[C@@]1(C#N)O[C@@H](c2ccc3c(N)ncnn23)[C@H](O)[C@@H]1O)OCc1cc(F)cc(C#N)c1
Given back: 2.21

Asked: Query (molecule): CCCCCCCCCCCCCCCCCCC[C@H](COP(=O)(O)OC[C@@]1(C#N)O[C@@H](c2ccc3c(N)ncnn23)[C@H](O)[C@@H]1O)OCc1ccc(-n2cncn2)c(C#N)c1 ; field requested: CC50 at 96 h
Given back: 4.96

Asked: Need CC50 at 96 h of CCCCCCCCCCCCCCCCCCOC[C@H](COP(=O)(O)OC[C@@]1(C#N)O[C@@H](c2ccc3c(N)ncnn23)[C@H](O)[C@@H]1O)Oc1ccc(C#N)c(OC(C)C)c1 , thanks.
Given back: 10.8

Asked: Return reported CC50 at 96 h; argument: CCCCCCCCCCCCCCCCCCCC[C@H](COP(=O)(O)OC[C@@]1(C#N)O[C@@H](c2ccc3c(N)ncnn23)[C@H](O)[C@@H]1O)OCc1cc(F)cc(C#N)c1
Given back: 4.69

Asked: May I ask what CC50 at 96 h has been recorded for CCCCCCCCCCCCCCCCCCC[C@H](COP(=O)(O)OC[C@@]1(C#N)O[C@@H](c2ccc3c(N)ncnn23)[C@H](O)[C@@H]1O)OCc1cc(F)cc(C#N)c1 ?
Given back: 8.49

Asked: Which CC50 at 96 h is listed for CCCCCCCCCCCCCCCCCCC[C@H](COP(=O)(O)OC[C@@]1(C#N)O[C@@H](c2ccc3c(N)ncnn23)[C@H](O)[C@@H]1O)OCc1ccc(C#N)c(OC(C)C)c1 ?
Given back: 9.9

Asked: Which value of CC50 at 96 h has been reported for CCCCCCCCCCCCCCCCCCOC[C@H](COP(=O)(O)OC[C@@]1(C#N)O[C@@H](c2ccc3c(N)ncnn23)[C@H](O)[C@@H]1O)OCc1ccc(C#N)c(Cl)c1 in the records?
Given back: 3.88

Source: patent US20250034182A1
